method-summary: in vitro
condition: human, liver microsomes
Note: every record was labeled by where its microsomal CLint sits among bottom end: < 20 µL/min/mg; midrange: ≥ 20 µL/min/mg and < 40 µL/min/mg; top end: ≥ 40 µL/min/mg

Answered cases to consult:
Category of C=CC(=O)Nc1cccc(CN2C(=O)N(c3c(Cl)c(OC)cc(OC)c3Cl)Cc3cnc(NCCCCN(CC)CC)nc32)c1 :
top end

Kindly identify the class of CC(=O)c1ncccc1NC(=O)[C@H]1CC[C@H](N2C(=O)[C@@H]3[C@@H]4CC[C@@H](C4)[C@@H]3C2=O)CC1 .
bottom end

Sort CCCCCOc1ccc(C(=O)NC(C(=O)O)C(C)C)cc1 (stereo not given) into one of the categories.
bottom end

Category of CCC(CC)NC(=O)c1nnn(-c2ccccc2)c1NS(=O)(=O)c1ccc(C)cc1 :
midrange

Dear colleague, I would appreciate it if you could identify the bin for C[C@@H]1CN(Cc2nnc(-c3cc(-c4cccc5[nH]ccc45)cc4[nH]ncc34)o2)C[C@H](C)O1 and reply at your convenience.
top end

State the class of the compound shown: CCC(NC(=O)Nc1cc(Cl)ccc1Cl)(C(F)(F)F)C(F)(F)F
bottom end

Which microsomal CLint band matches O=C(O)CSCC(=O)Nc1nc(-c2ccc(F)cc2)cs1 ?
bottom end

Input Cc1ccc(S(=O)(=O)Nc2c(C(=O)NC3CCCCC3)c(C)nn2-c2ccccc2)cc1 ; output its category
midrange

Let us examine a further case.
Would you mind sorting CC[C@H](CO)Nc1nc(SCc2cccc(F)c2F)nc2nc(N)sc12 into the appropriate category?
top end

* * *

method-summary: in vitro
condition: human, liver microsomes
readout-name: microsomal CLint (µL/min/mg)
Answers are plain numbers, in µL/min/mg.

Consider the reported microsomal CLint for these compounds:
microsomal CLint recorded for this compound, O=c1[nH]c2c(O)ccc([C@@H](O)CNCCSCCCNCCc3cccc(C(F)(F)F)c3)c2s1 , is 13

The compound CCN(C(=O)Cc1ccc([N+](=O)[O-])cc1)C1CCN(CCC(c2ccccc2)c2ccccc2)CC1 showed microsomal CLint equal to 13

Summary for this compound, CCC(CC)NC(=O)c1cnn(C)c1NS(=O)(=O)c1ccc(C)cc1 : microsomal CLint is 13

Reported microsomal CLint of Cc1cc(Nc2cncc(N[C@@H](C)c3ccc(F)cn3)n2)[nH]n1 : 34.7

Record O=C(O)COc1ccc(C(F)(F)F)cc1CN1CCN(S(=O)(=O)c2ccccc2)CC1 . Reported microsomal CLint: 6.33

Can you give me microsomal CLint for all of these, one by one?
1. O=C(NC[C@@H](O)CN1CCC(Oc2ccc(Cl)c(Cl)c2)CC1)c1c[nH]c(=O)cc1C(F)(F)F
2. O=C(NC[C@@H](O)CN1CCC(Oc2ccc(Cl)c(Cl)c2)CC1)c1n[nH]c(=O)c2ccccc12

1. 6
2. 3

Would you be so kind as to report microsomal CLint for each listed record?
1. Cc1ccc(C(=O)NC2CCC2)cc1-n1cnc2ccc(N3CCN(C)CC3)cc2c1=O
2. CCC(CC)NC(=O)c1cnn(-c2ccccc2)c1NS(=O)(=O)c1ccc(C)cc1
3. Cc1ccc2c(c1)c(Sc1ccc(Cl)cc1)c(C)n2CC(=O)O

[5, 54.5, 7]

* * *

method-summary: in vitro
condition: human, microsomes
Rule: measured microsomal CLint below 30 µL/min/mg gets YES; anything equal to or greater than 30 µL/min/mg gets NO.

Hello, I'm reviewing records and need to know if microsomal CLint of CCN(CC)CCn1c2ccccc2c2cnc(N)c(C#N)c21 is below 30 µL/min/mg. Could you check?
NO

# check: microsomal CLint < 30 µL/min/mg for Cc1ccc(NC(=O)c2ccccc2F)cc1-n1cnc2ccc(N3CCN(C)CC3)cc2c1=O
YES

Confirm or reject: microsomal CLint of COc1cc2nnc(C(N)=O)c(Nc3ccc(F)cc3F)c2cc1N1CCN(C)CC1 lies strictly below 30 µL/min/mg
NO

Please state whether microsomal CLint is below 30 µL/min/mg for Cc1c(Sc2ccc(Cl)cc2)c2cc(Cl)ccc2n1C(C)C(=O)O (stereo not drawn)
YES

# check: microsomal CLint < 30 µL/min/mg for CNCCC=C1c2ccccc2CCc2ccccc21
YES

Please determine if N#Cc1cccc(-c2cc(Cl)ccc2OCC(=O)O)c1 is below 30 µL/min/mg in terms of microsomal CLint.
YES

# check: microsomal CLint < 30 µL/min/mg for CCc1c2c(nc3ccc(O)cc13)-c1cc3c(c(=O)n1C2)COC(=O)[C@]3(O)CC [7-ETHYL-10-HYDROXYCAMPTOTHECIN]
YES
